- Test system: 885512-296-R-J2-PDC complex spheroid viability
- protocolDetails: Anticancer human tumor 885512-296-R-J2-PDC patient-derived breast carcinoma cell line growth inhibition [GQUAD]; active = viability on the fitted dose curve at most 10% of control; inactive = the rest
- conditionLabel: second compound 3.16 µM; first compound 0.316 µM
Possible outcomes: active, inactive

1) Cc1[nH]c2ccccc2c1CCNCc1ccc(/C=C/C(=O)NO)cc1 + Cc1cnc(CNC(=O)c2c(=O)c3ccc(N4CCCN(C)CC4)nc3n3c2sc2ccccc23)cn1 ... active
2) O=c1[nH]cc(F)c(=O)[nH]1 + Cc1cnc(CNC(=O)c2c(=O)c3ccc(N4CCCN(C)CC4)nc3n3c2sc2ccccc23)cn1 ... inactive
3) O=C(NO)c1cnc(N2CCN(S(=O)(=O)c3ccc4ccccc4c3)CC2)nc1 + Cc1[nH]c2ccc(F)cc2c1-c1nc2c3cccnc3c3ncccc3c2[nH]1 ... active
4) COc1ccc([C@@H](O)c2cc(-c3ncnc4cc(N5CCOCC5)ccc34)c(F)cc2Cl)nn1 + Cc1[nH]c2ccc(F)cc2c1-c1nc2c3cccnc3c3ncccc3c2[nH]1 ... active
5) Cn1ncnc1[C@H]1c2n[nH]c(=O)c3cc(F)cc(c23)N[C@@H]1c1ccc(F)cc1 + Cc1[nH]c2ccc(F)cc2c1-c1nc2c3cccnc3c3ncccc3c2[nH]1 ... active
6) Nc1ccn(C2OC(CO)C(O)C2(F)F)c(=O)n1 (stereo unspecified) + CN(C)c1ccc(Nc2c3ccc(NC(=O)CCN4CCCC4)cc3nc3cc(NC(=O)CCN4CCCC4)ccc23)cc1 ... active
7) O=C(c1cc(Cc2n[nH]c(=O)c3ccccc23)ccc1F)N1CCN(C(=O)C2CC2)CC1 + CN(C)c1ccc(Nc2c3ccc(NC(=O)CCN4CCCC4)cc3nc3cc(NC(=O)CCN4CCCC4)ccc23)cc1 ... inactive
8) CC(=O)O[C@H]1C(=O)[C@@]2(C)[C@H]([C@H](OC(=O)c3ccccc3)[C@]3(O)C[C@H](OC(=O)[C@H](O)[C@@H](NC(=O)c4ccccc4)c4ccccc4)C(C)=C1C3(C)C)[C@]1(OC(C)=O)CO[C@@H]1C[C@@H]2O + Cc1cnc(CNC(=O)c2c(=O)c3ccc(N4CCCN(C)CC4)nc3n3c2sc2ccccc23)cn1 ... active
9) Cc1cccc(N(C)C(=O)C2C(O)CCN2c2nc(C)cc(C(F)(F)F)c2C#N)c1 (stereo unspecified) + Cc1[nH]c2ccc(F)cc2c1-c1nc2c3cccnc3c3ncccc3c2[nH]1 ... inactive
10) C=CCn1c(=O)c2cnc(Nc3ccc(N4CCN(C)CC4)cc3)nc2n1-c1cccc(C(C)(C)O)n1 + Cc1[nH]c2ccc(F)cc2c1-c1nc2c3cccnc3c3ncccc3c2[nH]1 ... active
11) COc1cc(C2c3cc4c(cc3C(OC3OC5COC(C)OC5C(O)C3O)C3COC(=O)C23)OCO4)cc(OC)c1O (stereo unspecified) + Cc1[nH]c2ccc(F)cc2c1-c1nc2c3cccnc3c3ncccc3c2[nH]1 ... inactive

* * *

Let's look at some molecules and their measured viability, T/C.
- Tested on: 885512-296-R-J2-PDC complex spheroid viability
- protocolDetails: Anticancer human tumor 885512-296-R-J2-PDC cell line growth inhibition [GQUAD];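 note: spheroids exposed to the compounds for one week; percent of tumor spheroid viability relative to DMSO vehicle control wells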
- conditionLabel: second compound 0.1 µM; first compound 0.316 µM; active compounds read low
quantity: viability, T/C (%)

1. CC1COCCN1c1cc(C2(S(C)(=N)=O)CC2)nc(-c2ccnc3[nH]ccc23)n1 (stereo not given) + Cc1cnc(CNC(=O)c2c(=O)c3ccc(N4CCCN(C)CC4)nc3n3c2sc2ccccc23)cn1 ... 31.3
2. Cc1[nH]c2ccccc2c1CCNCc1ccc(/C=C/C(=O)NO)cc1 + Cc1cnc(CNC(=O)c2c(=O)c3ccc(N4CCCN(C)CC4)nc3n3c2sc2ccccc23)cn1 ... 6.34
3. CC1COCCN1c1cc(C2(S(C)(=N)=O)CC2)nc(-c2ccnc3[nH]ccc23)n1 (stereo not given) + CN(C)c1ccc(Nc2c3ccc(NC(=O)CCN4CCCC4)cc3nc3cc(NC(=O)CCN4CCCC4)ccc23)cc1 ... 90.7
4. CC1COCCN1c1cc(C2(S(C)(=N)=O)CC2)nc(-c2ccnc3[nH]ccc23)n1 (stereo not given) + Cc1[nH]c2ccc(F)cc2c1-c1nc2c3cccnc3c3ncccc3c2[nH]1 ... 92.1
5. COc1cc(C2c3cc4c(cc3C(OC3OC5COC(C)OC5C(O)C3O)C3COC(=O)C23)OCO4)cc(OC)c1O (stereo not given) + Cc1cnc(CNC(=O)c2c(=O)c3ccc(N4CCCN(C)CC4)nc3n3c2sc2ccccc23)cn1 ... 45

* * *

- Tested on: 885512-296-R-J2-PDC complex spheroid viability
- protocolDetails: Anticancer human tumor 885512-296-R-J2-PDC cell line growth inhibition [GQUAD]; active means viability on the fitted dose curve at most 10% of control; inactive means the rest;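 note: spheroids exposed to the compounds for one week; percent of tumor spheroid viability relative to DMSO vehicle control wells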
- conditionLabel: second compound 0.0316 µM; first compound 3.16 µM
Possible outcomes: TRUE for active, FALSE for inactive

1. CC1COCCN1c1cc(-c2ccnn2C)c2ccnc(-c3ccn[nH]3)c2n1 (stereo not given) + Cc1cnc(CNC(=O)c2c(=O)c3ccc(N4CCCN(C)CC4)nc3n3c2sc2ccccc23)cn1 ... TRUE
2. O=C(c1cc(Cc2n[nH]c(=O)c3ccccc23)ccc1F)N1CCN(C(=O)C2CC2)CC1 + Cc1[nH]c2ccc(F)cc2c1-c1nc2c3cccnc3c3ncccc3c2[nH]1 ... FALSE
3. COc1ncnc(C2CC2)c1-c1ncc2cnn(Cc3ccc(-c4nc(C(F)(F)F)cn4C(C)C)cc3)c2n1 + CN(C)c1ccc(Nc2c3ccc(NC(=O)CCN4CCCC4)cc3nc3cc(NC(=O)CCN4CCCC4)ccc23)cc1 ... FALSE
4. CC1COCCN1c1cc(C2(O)CC3CCC(C2)O3)c2cnn(-c3ccn[nH]3)c2n1 (stereo not given) + Cc1cnc(CNC(=O)c2c(=O)c3ccc(N4CCCN(C)CC4)nc3n3c2sc2ccccc23)cn1 ... TRUE
5. CC1COCCN1c1cc(C2(O)CC3CCC(C2)O3)c2cnn(-c3ccn[nH]3)c2n1 (stereo not given) + Cc1[nH]c2ccc(F)cc2c1-c1nc2c3cccnc3c3ncccc3c2[nH]1 ... TRUE

* * *

Let's look at some molecules and their measured viability, T/C.
- Test system: 885512-296-R-J2-PDC complex spheroid viability
- protocolDetails: Anticancer human tumor 885512-296-R-J2-PDC cell line growth inhibition [GQUAD];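 note: spheroids exposed to the compounds for one week; percent of tumor spheroid viability relative to DMSO vehicle control wells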
- conditionLabel: second compound 3.16 µM; first compound 0.316 µM; active compounds read low
quantity: viability, T/C

1) CC1COCCN1c1cc(-c2ccnn2C)c2ccnc(-c3ccn[nH]3)c2n1 (stereo not given) + CN(C)c1ccc(Nc2c3ccc(NC(=O)CCN4CCCC4)cc3nc3cc(NC(=O)CCN4CCCC4)ccc23)cc1 ... 3.25%
2) COc1ccc([C@@H](O)c2cc(-c3ncnc4cc(N5CCOCC5)ccc34)c(F)cc2Cl)nn1 + CN(C)c1ccc(Nc2c3ccc(NC(=O)CCN4CCCC4)cc3nc3cc(NC(=O)CCN4CCCC4)ccc23)cc1 ... 86%
3) COc1cccc2c1C(=O)c1c(O)c3c(c(O)c1C2=O)CC(O)(C(=O)CO)CC3OC1CC(N)C(O)C(C)O1 (stereo not given) + CN(C)c1ccc(Nc2c3ccc(NC(=O)CCN4CCCC4)cc3nc3cc(NC(=O)CCN4CCCC4)ccc23)cc1 ... 18.1%
4) CCCS(=O)(=O)Nc1ccc(F)c(C(=O)c2c[nH]c3ncc(-c4ccc(Cl)cc4)cc23)c1F + Cc1cnc(CNC(=O)c2c(=O)c3ccc(N4CCCN(C)CC4)nc3n3c2sc2ccccc23)cn1 ... 26.5%
5) CC(C)(O)C1CCC(Nc2ccc3ncc(-c4cccc(C(F)(F)F)c4)n3n2)CC1 (stereo not given) + Cc1[nH]c2ccc(F)cc2c1-c1nc2c3cccnc3c3ncccc3c2[nH]1 ... 10.3%

* * *

- Test system: 885512-296-R-J2-PDC complex spheroid viability
- protocolDetails: Anticancer human tumor 885512-296-R-J2-PDC cell line growth inhibition [GQUAD];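 note: spheroids exposed to the compounds for one week; percent of tumor spheroid viability relative to DMSO vehicle control wells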
- conditionLabel: second compound 3.16 µM; first compound 0.00316 µM; active compounds read low
Kindly apply the following: y if viability, T/C is less than 20%, n in every other case.

1. CC[C@@]1(O)C(=O)OCc2c1cc1n(c2=O)Cc2cc3c(CN(C)C)c(O)ccc3nc2-1 + Cc1cnc(CNC(=O)c2c(=O)c3ccc(N4CCCN(C)CC4)nc3n3c2sc2ccccc23)cn1 ... n
2. Cc1[nH]c2ccccc2c1CCNCc1ccc(/C=C/C(=O)NO)cc1 + CN(C)c1ccc(Nc2c3ccc(NC(=O)CCN4CCCC4)cc3nc3cc(NC(=O)CCN4CCCC4)ccc23)cc1 ... n
3. CCc1c2c(nc3ccc(O)cc13)-c1cc3c(c(=O)n1C2)COC(=O)[C@]3(O)CC + Cc1[nH]c2ccc(F)cc2c1-c1nc2c3cccnc3c3ncccc3c2[nH]1 ... y
4. CC[C@@]1(O)C(=O)OCc2c1cc1n(c2=O)Cc2cc3c(CN(C)C)c(O)ccc3nc2-1 + Cc1[nH]c2ccc(F)cc2c1-c1nc2c3cccnc3c3ncccc3c2[nH]1 ... n
5. Cc1[nH]c2ccccc2c1CCNCc1ccc(/C=C/C(=O)NO)cc1 + Cc1[nH]c2ccc(F)cc2c1-c1nc2c3cccnc3c3ncccc3c2[nH]1 ... y
6. Cc1[nH]c2ccccc2c1CCNCc1ccc(/C=C/C(=O)NO)cc1 + Cc1cnc(CNC(=O)c2c(=O)c3ccc(N4CCCN(C)CC4)nc3n3c2sc2ccccc23)cn1 ... y
7. Cn1ncnc1[C@H]1c2n[nH]c(=O)c3cc(F)cc(c23)N[C@@H]1c1ccc(F)cc1 + CN(C)c1ccc(Nc2c3ccc(NC(=O)CCN4CCCC4)cc3nc3cc(NC(=O)CCN4CCCC4)ccc23)cc1 ... n
8. Cn1ncnc1[C@H]1c2n[nH]c(=O)c3cc(F)cc(c23)N[C@@H]1c1ccc(F)cc1 + Cc1cnc(CNC(=O)c2c(=O)c3ccc(N4CCCN(C)CC4)nc3n3c2sc2ccccc23)cn1 ... n
9. Cn1ncnc1[C@H]1c2n[nH]c(=O)c3cc(F)cc(c23)N[C@@H]1c1ccc(F)cc1 + Cc1[nH]c2ccc(F)cc2c1-c1nc2c3cccnc3c3ncccc3c2[nH]1 ... n
10. CC[C@@]1(O)C(=O)OCc2c1cc1n(c2=O)Cc2cc3c(CN(C)C)c(O)ccc3nc2-1 + CN(C)c1ccc(Nc2c3ccc(NC(=O)CCN4CCCC4)cc3nc3cc(NC(=O)CCN4CCCC4)ccc23)cc1 ... n
11. CCc1c2c(nc3ccc(O)cc13)-c1cc3c(c(=O)n1C2)COC(=O)[C@]3(O)CC + CN(C)c1ccc(Nc2c3ccc(NC(=O)CCN4CCCC4)cc3nc3cc(NC(=O)CCN4CCCC4)ccc23)cc1 ... y
